Where do these numbers come from? They come from PubChem BioAssay (NCI).

growth reference
- Test system: OVCAR-8 ovarian
- experiment_notes: NCI-60 one-dose screen, 48 h (100 = growth as untreated, 0 = no growth, -100 = all killed)
- test_context: 10 µM unless noted
The panel holds about 83,000 compounds, 20% with a hit somewhere; the sample as a whole holds those more often.
Entry rule: numbers only, all in %.

Record excerpt, results attached:
                         structure_notation  metric  uom  experimental_result
0     COc1ccc(-c2nn3c(-c4ccccc4F)nnc3s2)cc1  growth    %                 68.3
1  O=C(N/N=C/c1ccc[nH]1)c1[nH]c2ccc(Br)cc2c1-c1ccccc1  growth    %                   13
2  O=C1/C(=C/C2=Cc3ccccc3OC2)SC(=S)N1c1ccc(F)cc1  growth    %                  105

-- ask Give reported growth value for CO/N=C1\CCc2c(sc(NC(=O)c3cccc(C(F)(F)F)c3)c2C(N)=O)C1
-- reply 20.9

-- ask Give reported growth value for Nc1cc(-c2c[nH]c3ccc(F)cc23)nc2cc(-c3c[nH]c4ccc(F)cc34)nn12
-- reply 89.8

-- ask Give reported growth value for Nc1ncc(-c2ccc3ncnc(N4CCc5cc(F)c(Cl)cc54)c3c2)cc1CO
-- reply 12.5

-- ask Give reported growth value for CN(C)CCCNc1c2ccc(Cl)cc2nc2c1oc1ccccc12
-- reply -17.9

-- ask Give reported growth value for Cc1ccc2c(n1)C(=O)C(Cl)=C(Nc1cccc(C(C)C)c1)C2=O
-- reply 57.2

-- ask Give reported growth value for Clc1ccc(Cc2nnc3sc(-c4cccnc4)nn23)cc1
-- reply 96.6

-- ask Give reported growth value for Cn1cc(-c2cc(N)n3nc(-c4cn(C)c5ccc(Br)cc45)cc3n2)c2cc(Br)ccc21
-- reply 86.8

---

- Tested on: HCC-2998 colon
- experiment_notes: NCI-60 one-dose screen, 48 h (100 = growth as untreated, 0 = no growth, -100 = all killed)
- test_context: 10 µM unless noted
This is part of a sample that, as a whole, favours compounds with a hit. Of some 83,000 tested, about 20% had one in any assay.
Hi! Just check whether growth is below 50%. Below gives T, equal or above gives F.

# count of solved cases: 3
In [3]: df
Out[3]:
                                   compound  assayed_target  label_value
0  COc1cc(OC)c(C2C(Cl)C(=O)N2Nc2ncnc3ccccc23)cc1OC (stereo unspecified)  HCC-2998 colon            F
1  COc1cccc(COc2ccc(/C=C3/C(=O)Nc4cc(Cl)ccc43)cc2)c1  HCC-2998 colon            F
2  N#Cc1ccc(/C=N/NC(=O)c2[nH]c3ccc(Br)cc3c2-c2ccccc2)s1  HCC-2998 colon            T

-- ask Dear reviewer, please state whether CC(C)(O)c1cncc(-c2ccc3ncnc(N4CCc5cc(F)c(Cl)cc54)c3c2)c1 has growth strictly beneath 50%.
-- reply T

-- ask Dear reviewer, please state whether CC(C)(C)Nc1nc2c(OCCc3ccccc3)cccn2c1-c1ccc(O)cc1 has growth strictly beneath 50%.
-- reply F

-- ask Dear reviewer, please state whether O=C(CSc1nc2sc3c(c2c(=O)n1-c1ccc(Cl)cc1)CCCC3)NNC(=O)Nc1cccc(C(F)(F)F)c1 has growth strictly beneath 50%.
-- reply T

-- ask Dear reviewer, please state whether CS(=O)(=O)c1ccc(-c2nc3ccccn3c2/C=N/Nc2nc(-c3ccc(Br)cc3)cs2)cc1 has growth strictly beneath 50%.
-- reply F

-- ask Dear reviewer, please state whether COc1cc2cc(Oc3ccc(NC(=O)c4cccc(C(F)(F)F)c4)cc3)c(C)nc2cc1OCCN1CCCCC1 has growth strictly beneath 50%.
-- reply T

-- ask Dear reviewer, please state whether COC(=O)C(C)NS(=O)(=O)/N=C1\NC(=O)NC1=C(Cl)Cl (stereo unspecified) has growth strictly beneath 50%.
-- reply F

-- ask Dear reviewer, please state whether N/C(=N\c1nc2c(Br)cccc2s1)C(Br)Br has growth strictly beneath 50%.
-- reply T

-- ask Dear reviewer, please state whether COc1cc(-c2nc3ccc(-c4nnc(SCC(=O)Nc5ccc(C(C)=O)cc5)o4)cc3[nH]2)cc(OC)c1OC has growth strictly beneath 50%.
-- reply F

-- ask Dear reviewer, please state whether O=C1C2=C(C(=O)c3c(O)cccc31)C(c1ccco1)c1sc(=O)[nH]c1S2 (stereo unspecified) has growth strictly beneath 50%.
-- reply T

-- ask Dear reviewer, please state whether CN(C)S(=O)(=O)c1oc(-c2ccccc2)nc1C#N has growth strictly beneath 50%.
-- reply F

-- ask Dear reviewer, please state whether C#Cc1nc(C2=C(C)C(=O)/C(=N/OC(C)=O)C2)cs1 has growth strictly beneath 50%.
-- reply F

-- ask Dear reviewer, please state whether Clc1ccc2oc3c(NCCCn4ccnc4)c4ccccc4nc3c2c1 has growth strictly beneath 50%.
-- reply F

-- ask Dear reviewer, please state whether CS(=O)(=O)c1ccc(-n2cc(/C=C/C(=O)c3ccc(NC(=O)CO[N+](=O)[O-])cc3)c(-c3ccc(Cl)cc3)n2)cc1 has growth strictly beneath 50%.
-- reply F

---

- Tested on: NCI/ADR-RES ovarian
- experiment_notes: NCI-60 one-dose screen, 48 h (100 = growth as untreated, 0 = no growth, -100 = all killed)
- test_context: 10 µM unless noted
Compounds without any hit were thinned out: in the full panel of roughly 83,000, 20% have a hit. Calls of active or inactive are those of the source. Rule for the calls: active = growth percent below 10; inactive = the rest.
metric: growth

Record excerpt, results attached:
                                   molecule       assayed_target  experimental_result
0  COc1ccc(/C=C2\SC(=Nc3cc(C)[nH]n3)NC2=O)cc1  NCI/ADR-RES ovarian     98.3% (inactive)
1  O=C1Nc2ccc(Cl)cc2/C1=C/c1ccc(OCC(=O)c2ccc(Br)cc2)cc1  NCI/ADR-RES ovarian     93.3% (inactive)
2  COc1ccc(/C=C/C(=O)c2ccc(NC(=O)CSc3nnc(-c4ccc5nc(-c6ccc(Cl)cc6)[nH]c5c4)o3)cc2)cc1  NCI/ADR-RES ovarian      107% (inactive)
3  N#Cc1c(-c2ccc(Cl)cc2)nc(SCc2ccc(F)cc2)nc1N1CCNCC1  NCI/ADR-RES ovarian     51.2% (inactive)

-- ask Give reported growth value for Nc1nc(N)c2c(n1)NC(c1ccc(C(F)(F)F)cc1)CC(c1ccc(Nc3nc(NCCO)nc(Nc4ccc(Cl)cc4)n3)cc1)=N2 (configuration not stated)
-- reply -29.3% (active)

-- ask Give reported growth value for OC1CCN(CCCOc2c3ccc(Cl)cc3nc3c2oc2ccc(Cl)cc23)CC1
-- reply 32.4% (inactive)

-- ask Give reported growth value for CCN1CCN(S(=O)(=O)c2oc(-c3ccc(Cl)cc3)nc2C#N)CC1
-- reply 96% (inactive)

---

- Test system: TK-10 renal
- experiment_notes: NCI-60 one-dose screen, 48 h (100 = growth as untreated, 0 = no growth, -100 = all killed)
- test_context: 10 µM unless noted
About 83,000 compounds went through this panel and 20% of them were active in at least one assay; those are over-represented in the sample as a whole. Calls of active or inactive are those of the source. How the source made its calls: active means growth percent below 10; inactive means the rest.
metric: growth

Record excerpt, results attached:
In [3]: df
Out[3]:
                                   molecule  metric  experimental_result
0   C#Cc1nc(C2=C(C)/C(=N/OCc3ccccc3)CC2)cs1  growth      158% (inactive)
1  CC1=C(C)C(=O)C(Nc2cccc(C(F)(F)F)c2)=C(Cl)C1=O  growth      184% (inactive)
2  COc1cc(/C=C/C(=O)c2cc(OC)c(OC)c(OC)c2)ccc1OCc1ccccc1  growth      153% (inactive)
3  C#Cc1nc(C2=C(C)C(O)/C(=N/O)C2)cs1 (stereo not given)  growth      162% (inactive)
4  COc1ccc(/C=N/NC(=O)c2[nH]c3ccc(Br)cc3c2-c2ccccc2)o1  growth     94.5% (inactive)

-- ask Give reported growth value for O=C(NNc1nc2cc(F)ccc2n2c(CN3CC4(COC4)C3)ccc12)c1cnccn1
-- reply 38.9% (inactive)

-- ask Give reported growth value for COc1ccc([C@@H]2c3[nH]c4ccccc4c3CC3C(=O)N(C4CCN(Cc5c(F)cccc5F)CC4)CC(=O)N32)c(OC)c1 (stereo not given in full)
-- reply 63.5% [5.26 µM] (inactive)

-- ask Give reported growth value for Cc1ccc2c(n1)C(=O)C(Cl)=C(Nc1cccc(C(C)C)c1)C2=O
-- reply 119% (inactive)

-- ask Give reported growth value for COc1ccc(C(=O)c2cc(C(=O)/C=C/c3c(Cl)cccc3Cl)c3cc(C)ccn23)cc1
-- reply 119% (inactive)

-- ask Give reported growth value for O=C(c1ccc(O)cc1)C1[C@H](c2ccc(Cl)cc2)[C@@H](c2ccccc2)NC12C(=O)Nc1ccc(Cl)cc12 (stereo not given in full)
-- reply 66.9% (inactive)
